Test system: E. coli strain M50 (CMY, DHA)
ASSAY_PROTOCOL: Time-dependent bacterial kill study
Assay type: cell-based
MEASUREMENT_PARAMETERS: 4 hours; antibacterial agent alone 8 μg/ml; initial count 7.18 log10 CFU/ml
Quick reference: Bacterial count of the listed items.

Given the compound Nc1nc(/C(=C/CC(=O)O)C(=O)N[C@@H]2C(=O)N3C(C(=O)O)=CCS[C@H]23)cs1 [Ceftibuten] and test system E. coli strain M50 (CMY, DHA), the measured Bacterial count is 8.30 Log10 CFU per ml

Given the compound COCC1=C(C(=O)O)N2C(=O)[C@@H](NC(=O)/C(=N\OC)c3csc(N)n3)[C@H]2SC1 [Cefpodoxime] and test system E. coli strain M50 (CMY, DHA), the measured Bacterial count is 8.70 Log10 CFU per ml

Given the compound C=CC1=C(C(=O)O)N2C(=O)[C@@H](NC(=O)/C(=N\OCC(=O)O)c3csc(N)n3)[C@H]2SC1 [Cefixime] and test system E. coli strain M50 (CMY, DHA), the measured Bacterial count is 8.90 Log10 CFU per ml

Given the compound CO/N=C(\C(=O)N[C@@H]1C(=O)N2C(C(=O)[O-])=C(C[N+]3(C)CCCC3)CS[C@H]12)c1csc(N)n1 [Cefepime] and test system E. coli strain M50 (CMY, DHA), the measured Bacterial count is 8.65 Log10 CFU per ml

Given the compound CC(C)(O/N=C(\C(=O)N[C@@H]1C(=O)N2C(C(=O)[O-])=C(C[n+]3ccccc3)CS[C@H]12)c1csc(N)n1)C(=O)O [Ceftazidime] and test system E. coli strain M50 (CMY, DHA), the measured Bacterial count is 8.90 Log10 CFU per ml

----------
Quick reference: Bacterial count of the listed items.
System: E. coli strain M50 (CMY, DHA)
ASSAY_PROTOCOL: Time-dependent bacterial kill study
Format: cell-based
MEASUREMENT_PARAMETERS: 6 hours; antibacterial agent alone 8 μg/ml; initial count 7.18 log10 CFU/ml
Form entry: value (Log10 CFU per ml) — number only.

> print(dat)
                                   molecule                  target.system  experimental.value
1  CC(C)(O/N=C(\C(=O)N[C@@H]1C(=O)N2C(C(=O)[O-])=C(C[n+]3ccccc3)CS[C@H]12)c1csc(N)n1)C(=O)O  E. coli strain M50 (CMY, DHA)                 9.0
2  C=CC1=C(C(=O)O)N2C(=O)[C@@H](NC(=O)/C(=N\OCC(=O)O)c3csc(N)n3)[C@H]2SC1  E. coli strain M50 (CMY, DHA)                8.78

Record `Nc1nc(/C(=C/CC(=O)O)C(=O)N[C@@H]2C(=O)N3C(C(=O)O)=CCS[C@H]23)cs1` , field Bacterial count: 8.74

Record `COCC1=C(C(=O)O)N2C(=O)[C@@H](NC(=O)/C(=N\OC)c3csc(N)n3)[C@H]2SC1` , field Bacterial count: 8.95

Record CO/N=C(\C(=O)N[C@@H]1C(=O)N2C(C(=O)[O-])=C(C[N+]3(C)CCCC3)CS[C@H]12)c1csc(N)n1 [Cefepime] , field Bacterial count: 8.90

----------
Test system: K. pneumoniae H521
Quick reference: MIC of the listed items.
Form entry: value (µg/mL) — number only.

# example entries with known answers
> print(dat)
                                smiles.text       target.system  experimental.value
1  O=C(NOC[C@@H]1C[C@@H](F)CN1)[C@@H]1CC[C@@H]2CN1C(=O)N2OS(=O)(=O)O  K. pneumoniae H521                   4
2  O=C(NOC[C@@H]1C[C@H](F)CN1)[C@@H]1CC[C@@H]2CN1C(=O)N2OS(=O)(=O)O  K. pneumoniae H521                   1
3  O=C(NOC[C@H]1C[C@@H](F)CN1)[C@@H]1CC[C@@H]2CN1C(=O)N2OS(=O)(=O)O  K. pneumoniae H521                   4

Shift focus to the following entry.
Given the molecule `O=C(NOC[C@H]1C[C@H](F)CN1)[C@@H]1CC[C@@H]2CN1C(=O)N2OS(=O)(=O)O` and test system K. pneumoniae H521, the measured MIC is 2
